TEST_PROTOCOL: Chemical stability in aqueous solution assessed as hydrolysis after 4 hrs
Type: physicochemical
ASSAY_CONDITIONS: read-out: Activity
ENDPOINT: degraded at 4 h (%)

# MOLECULE, UNITS_LABEL, NUMERIC_RESULT
rows = [
    ("CC(c1ccccc1)n1cncc1C(=O)N=[N+]=[N-] (stereo unspecified)", "%", 10),
]
